Exercise: for every item that follows, state its recorded pIC50.
target: HIV-1 integrase (Human immunodeficiency virus type 1 group M subtype B, UniProt P04585); construct: Expression and purification of the recombinant HIV-1 integrase in Escherichia coli; made in house; host or cells: Escherichia coli; experiment: Disintegration assay with Y-oligomer substrate; format: biochemical; settings: In vitro IC50 Disintegration, Mg2+
pIC50: −log10 of the molar value.

The following compounds each have a reported value; give each one's pIC50.
1. CC(C)c1ccccc(=O)c1O
2. C=C(C)C1CCc2c(c(C)cc(O)c(=O)c2O)C1 (stereo not shown)
3. CC(C)c1cccc(=O)c(O)c1

["< 3.48", "< 3.48", "< 3.48"]

The following compounds each have a reported value; give each one's pIC50.
1. CC(C)c1ccc(O)c(=O)cc1
2. O=c1cccccc1O
3. CC(C)=CCc1ccc(=O)c(O)cc1C(C)C
4. CC(C)c1ccc(O)c(=O)c(O)c1

< 3.48
< 3.48
< 3.48
< 3.48

###

biological target: HIV-1 integrase (Human immunodeficiency virus type 1 group M subtype B, UniProt P04585); construct: Expression and purification of the recombinant HIV-1 integrase in Escherichia coli; made in house; host or cells: Escherichia coli; test: Strand transfer assay with preprocessed (19/21) DNA substrate; assay type: biochemical; details: In vitro IC50 Preprocessed substrate, Mn2+
pIC50: −log10 of the molar value.
Assay Metric: pIC50

[[record]]
compound = "O=c1cccccc1O [NSC 89303, tropolone]"
assay_metric = "pIC50"
result = "< 3.48"

[[record]]
compound = "CC(C)c1ccc(O)c(=O)cc1 [NSC 43338, γ-thujaplicin]"
assay_metric = "pIC50"
result = "< 3.48"

[[record]]
compound = "CC(C)=CCc1ccc(=O)c(O)cc1C(C)C [NSC 43339, nootkatin]"
assay_metric = "pIC50"
result = "< 3.48"

[[record]]
compound = "CC(C)c1ccccc(=O)c1O [NSC 18805, α-thujaplicin]"
assay_metric = "pIC50"
result = "< 3.48"

[[record]]
compound = "CC(C)c1ccc(O)c(=O)c(O)c1 [NSC 18806, β-thujaplicinol]"
assay_metric = "pIC50"
result = 5.30


The following compounds each have a reported value; give each one's pIC50.
1. CC(C)c1cccc(=O)c(O)c1 [NSC 18804, β-thujaplicin]
2. C=C(C)C1CCc2c(c(C)cc(O)c(=O)c2O)C1 (stereo not shown) [NSC 310618, manicol]

["< 3.48", 4.59]

###

biological target: HIV-1 integrase (Human immunodeficiency virus type 1 group M subtype B); construct: Expression and purification of the recombinant HIV-1 integrase in Escherichia coli; made in house; host or cells: Escherichia coli; assay: Integrase catalytic assay, 3′-processing (3′-P), 21 bp duplex substrate; assay type: biochemical; conditions: In vitro IC50 21 bp substrate 3′-P, Mg2+
pIC50: −log10 of the molar value.
Assay Metric: pIC50

// known answers, use as guide
[[record]]
molecule = "CC(C)c1ccc(O)c(=O)cc1"
result = "< 3.48"

[[record]]
molecule = "C=C(C)C1CCc2c(c(C)cc(O)c(=O)c2O)C1 (stereo not shown)"
result = 3.74

[[record]]
molecule = "CC(C)c1cccc(=O)c(O)c1"
result = "< 3.48"

[[record]]
molecule = "CC(C)c1ccc(O)c(=O)c(O)c1"
result = 3.93

[[record]]
molecule = "CC(C)c1ccccc(=O)c1O"
result = "< 3.48"


The following molecules each have a reported value; give each one's pIC50.
1. O=c1cccccc1O
2. CC(C)=CCc1ccc(=O)c(O)cc1C(C)C

1: < 3.48; 2: < 3.48

###

molecular target: HIV-1 integrase (Human immunodeficiency virus type 1 group M subtype B); construct: Expression and purification of the recombinant HIV-1 integrase in Escherichia coli; made in house; host or cells: Escherichia coli; assay: Strand transfer assay with preprocessed (19/21) DNA substrate; assay type: biochemical; conditions: read-out: inhibition activity, preprocessed substrate, Mn2+; drug concentration of 333 μM
Exercise: for every item that follows, state its recorded inhibition at 333 µM.

// known answers, use as guide
[[record]]
record_smiles = "O=c1cccccc1O"
result = "5 to 20%"

[[record]]
record_smiles = "CC(C)c1cccc(=O)c(O)c1"
result = "5 to 20%"

[[record]]
record_smiles = "CC(C)c1ccc(O)c(=O)cc1"
result = "< 5%"

[[record]]
record_smiles = "CC(C)c1ccccc(=O)c1O"
result = "< 5%"


Field: inhibition at 333 µM (HIV-1 integrase (Human immunodeficiency virus type 1 group M subtype B)). Entry: "CC(C)=CCc1ccc(=O)c(O)cc1C(C)C"
20 to 40%

###

molecular target: HIV-1 integrase (Human immunodeficiency virus type 1 group M subtype B); construct: Expression and purification of the recombinant HIV-1 integrase in Escherichia coli; made in house; host or cells: Escherichia coli; assay: Integrase catalytic assay, strand transfer (ST), 21 bp duplex substrate; assay type: biochemical; conditions: IC50, inhibition of HIV-1 integrase (first screen), Mn2+ as cofactor, U5 LTR DNA substrate; 3′-P or ST not specified
pIC50: −log10 of the molar value.
Assay Metric: pIC50

Field: pIC50 (HIV-1 integrase (Human immunodeficiency virus type 1 group M subtype B)). Entry: O=c1cccccc1O [NSC 89303, tropolone]
< 3.48

###

target: HIV-1 integrase (Human immunodeficiency virus type 1 group M subtype B, UniProt P04585); construct: Expression and purification of the recombinant HIV-1 integrase in Escherichia coli; made in house; host or cells: Escherichia coli; assay: Integrase catalytic assay, strand transfer (ST), 21 bp duplex substrate; format: biochemical; conditions: Mn2+; drug concentration of 333 μM
Exercise: for every item that follows, state its recorded inhibition activity, ST, 21 bp substrate.

// known answers, use as guide
[[record]]
record_smiles = "CC(C)c1cccc(=O)c(O)c1"
assay_metric = "inhibition activity, ST, 21 bp substrate"
result = "2 (5% < inhibition activity < 20%)"

[[record]]
record_smiles = "CC(C)c1ccc(O)c(=O)cc1"
assay_metric = "inhibition activity, ST, 21 bp substrate"
result = "1 (inhibition activity ≦ 5%)"


Turning now to a further record.
Field: inhibition activity, ST, 21 bp substrate (HIV-1 integrase (Human immunodeficiency virus type 1 group M subtype B, UniProt P04585)). Entry: "CC(C)c1ccccc(=O)c1O"
1 (inhibition activity ≦ 5%)

###

Exercise: for every item that follows, state its recorded IC50.
target: HIV-1 integrase (Human immunodeficiency virus type 1 group M subtype B, UniProt P04585); construct: Expression and purification of the recombinant HIV-1 integrase in Escherichia coli; made in house; host or cells: Escherichia coli; experiment: Integrase catalytic assay, 3′-processing (3′-P), 21 bp duplex substrate; format: biochemical; conditions: In vitro IC50 21 bp substrate 3′-P, Mn2+

// known answers, use as guide
[[record]]
molecule = "CC(C)=CCc1ccc(=O)c(O)cc1C(C)C [NSC 43339, nootkatin]"
assay_metric = "IC50"
result = "> 333 µM"

[[record]]
molecule = "O=c1cccccc1O [NSC 89303, tropolone]"
assay_metric = "IC50"
result = "> 333 µM"

[[record]]
molecule = "CC(C)c1ccccc(=O)c1O [NSC 18805, α-thujaplicin]"
assay_metric = "IC50"
result = "> 333 µM"

[[record]]
molecule = "CC(C)c1ccc(O)c(=O)c(O)c1 [NSC 18806, β-thujaplicinol]"
assay_metric = "IC50"
result = "24.6 µM"

[[record]]
molecule = "CC(C)c1ccc(O)c(=O)cc1 [NSC 43338, γ-thujaplicin]"
assay_metric = "IC50"
result = "> 333 µM"

[[record]]
molecule = "CC(C)c1cccc(=O)c(O)c1 [NSC 18804, β-thujaplicin]"
assay_metric = "IC50"
result = "> 333 µM"


Turning now to a further record.
Could you tell me which IC50 is on file for C=C(C)C1CCc2c(c(C)cc(O)c(=O)c2O)C1 (stereo not shown) [NSC 310618, manicol] ?
20.2 µM
